# System: OVCAR-8
# method description: NCI tumour cell line growth inhibition, 48 h
Active and inactive are the calls of the source. No stated cut-off is given here; in the data, active = GI50 up to about 1.1 µM and inactive = higher.
Just give me one of these, please: active, inactive

CC1=NN(c2ccccc2)C(=O)C1C(=O)C(=O)Nc1ccc(C)cc1C (stereo not given)
inactive
Oc1cc(-c2cccc(Cl)c2)nc2cc3c(cc12)OCO3
active
C=C1C(=O)OC2C(C)C3C=CC(=O)[C@@]3(C)C(OC(=O)/C(C)=C/C)C1[C@@H]2OC(C)=O (stereo not given in full)
active
Cc1cc2cc3ccccc3cc2c(=O)[nH]1
inactive
O=C(NC(Nc1ccc(F)c(Cl)c1)(C(F)(F)F)C(F)(F)F)C(C(F)(F)F)C(F)(F)F
inactive
c1cncc(CSc2nc3ccccc3nc2-c2cccs2)c1
inactive
O=C1C=CC2(O[C@H](c3ccccc3)[C@@H](c3ccccc3)O2)C(SC(=O)c2ccccc2)C1 (stereo not given in full)
active
c1cc(-c2cnc(-c3ccc4c(c3)CCCO4)o2)ccn1
inactive
COc1cc(OC)cc(C(=O)NC2=C(Cl)C(=O)c3ccccc3C2=O)c1
inactive
c1ccc(C2SCC3=Nc4ccccc4CN32)cc1 (stereo not given)
inactive

Q: Could you kindly confirm the outcome this assay logged for CC(NCc1c(O)ccc2c(-c3ccccc3)cc(=O)oc12)C(=O)O (stereo not given) ?
Ans: inactive

----------
# Tested on: LOX IMVI
# method description: NCI tumour cell line growth inhibition, 48 h
Calls of active or inactive are those of the source. Cut-off read from the data, not from the text of the source: active = GI50 up to about 1.1 µM and inactive = higher.
Just give me one of these, please: T (active), F (inactive)

Q: Could you kindly confirm the outcome this assay logged for COC(=O)[C@H]1ON2O[C@@H](O[C@H]3CCCC[C@@H]3C(C)(C)c3ccccc3)C[C@@H]3CC[C@H]1[C@@]32C ?
Ans: F

Q: Another compound: O=[N+]([O-])C(C(Cl)=C(Cl)Cl)=C(N1CCCCC1)N1CCCCC1
Ans: F

Q: Another compound: Nc1nc(N)c2c(-c3ccccc3)ccnc2n1
Ans: F

Q: Another compound: Cc1nc(N)nc(S)c1CCC(=O)O
Ans: F

Q: Another compound: Cc1n2nc(N)sc2n[n+]1CC(=O)c1ccccc1
Ans: F

Q: Another compound: COc1cc2c(c(OC3OC(CO)C(O)C(O)C3O)c1)C(=O)CC(c1ccc(O)cc1)O2 (stereo not given)
Ans: F

Q: Another compound: COc1cc(OC)cc(C(=O)NC2=C(Cl)C(=O)c3ccccc3C2=O)c1
Ans: F

Q: Another compound: CC(Br)CN(CC(C)Br)c1ccc2c(c1)Cc1ccccc1-2 (stereo not given)
Ans: F

Q: Another compound: COc1cc(Cc2ccc3c(c2C#N)N(C)c2ccccc2S3)cc(OC)c1OC
Ans: F

Q: Another compound: CCOC(=O)C1=C(Nc2cccc(OC)c2)OCC1=O
Ans: F

----------
# Test system: U-251
# method description: NCI tumour cell line growth inhibition, 48 h
Calls of active or inactive are those of the source. No stated cut-off is given here; in the data, active = GI50 up to about 1.1 µM and inactive = higher.
Just give me one of these, please: active, inactive

Q: Could you kindly confirm the outcome this assay logged for CN(C)CCNc1ccc([N+](=O)[O-])c2nc3ccccc3c(N)c12 ?
Ans: active

Q: Another compound: COc1cc2c(cc1OC)C(C1(O)CCCCC1)NCC2 (configuration not stated)
Ans: inactive

Q: Another compound: Cc1ccc(S(=O)(=O)Nn2c(S)c(C#N)c(-c3ccc(N(C)C)cc3)c(C#N)c2=O)cc1
Ans: inactive

Q: Another compound: CN1C/C(=C\c2ccccc2[N+](=O)[O-])C(=O)/C(=C/c2ccccc2[N+](=O)[O-])C1
Ans: inactive

Q: Another compound: c1ccc(/C(=N/Nc2cnccn2)c2ncccn2)cc1
Ans: inactive

Q: Another compound: O=C(Cc1ccccc1)NN1C(=O)C(Cl)C1c1cccc(O)c1 (configuration not stated)
Ans: inactive

Q: Another compound: C[Si]12OCCCN(CCO1)CCO2
Ans: inactive

Q: Another compound: CC(C)(C)OC(=O)NCC(=O)NC1c2ccsc2/C(=N/O)[C@H]1O (some centres not stated)
Ans: inactive

Q: Another compound: O=[N+]([O-])c1ccc(-c2ccc(C3=Nn4c(CNc5ccccc5Cl)nnc4SC3)o2)cc1
Ans: inactive

Q: Another compound: CC1CCC2(NC1)OC1CC3[C@@H]4CC=C5C=CCC[C@]5(C)C4CC[C@]3(C)C1C2C (some centres not stated)
Ans: inactive

Sourced from ChEMBL document CHEMBL1201862
